Target: CDK12/CycK (Homo sapiens, UniProt Q9NYV4)
Sequence (Q9NYV4 whole entry): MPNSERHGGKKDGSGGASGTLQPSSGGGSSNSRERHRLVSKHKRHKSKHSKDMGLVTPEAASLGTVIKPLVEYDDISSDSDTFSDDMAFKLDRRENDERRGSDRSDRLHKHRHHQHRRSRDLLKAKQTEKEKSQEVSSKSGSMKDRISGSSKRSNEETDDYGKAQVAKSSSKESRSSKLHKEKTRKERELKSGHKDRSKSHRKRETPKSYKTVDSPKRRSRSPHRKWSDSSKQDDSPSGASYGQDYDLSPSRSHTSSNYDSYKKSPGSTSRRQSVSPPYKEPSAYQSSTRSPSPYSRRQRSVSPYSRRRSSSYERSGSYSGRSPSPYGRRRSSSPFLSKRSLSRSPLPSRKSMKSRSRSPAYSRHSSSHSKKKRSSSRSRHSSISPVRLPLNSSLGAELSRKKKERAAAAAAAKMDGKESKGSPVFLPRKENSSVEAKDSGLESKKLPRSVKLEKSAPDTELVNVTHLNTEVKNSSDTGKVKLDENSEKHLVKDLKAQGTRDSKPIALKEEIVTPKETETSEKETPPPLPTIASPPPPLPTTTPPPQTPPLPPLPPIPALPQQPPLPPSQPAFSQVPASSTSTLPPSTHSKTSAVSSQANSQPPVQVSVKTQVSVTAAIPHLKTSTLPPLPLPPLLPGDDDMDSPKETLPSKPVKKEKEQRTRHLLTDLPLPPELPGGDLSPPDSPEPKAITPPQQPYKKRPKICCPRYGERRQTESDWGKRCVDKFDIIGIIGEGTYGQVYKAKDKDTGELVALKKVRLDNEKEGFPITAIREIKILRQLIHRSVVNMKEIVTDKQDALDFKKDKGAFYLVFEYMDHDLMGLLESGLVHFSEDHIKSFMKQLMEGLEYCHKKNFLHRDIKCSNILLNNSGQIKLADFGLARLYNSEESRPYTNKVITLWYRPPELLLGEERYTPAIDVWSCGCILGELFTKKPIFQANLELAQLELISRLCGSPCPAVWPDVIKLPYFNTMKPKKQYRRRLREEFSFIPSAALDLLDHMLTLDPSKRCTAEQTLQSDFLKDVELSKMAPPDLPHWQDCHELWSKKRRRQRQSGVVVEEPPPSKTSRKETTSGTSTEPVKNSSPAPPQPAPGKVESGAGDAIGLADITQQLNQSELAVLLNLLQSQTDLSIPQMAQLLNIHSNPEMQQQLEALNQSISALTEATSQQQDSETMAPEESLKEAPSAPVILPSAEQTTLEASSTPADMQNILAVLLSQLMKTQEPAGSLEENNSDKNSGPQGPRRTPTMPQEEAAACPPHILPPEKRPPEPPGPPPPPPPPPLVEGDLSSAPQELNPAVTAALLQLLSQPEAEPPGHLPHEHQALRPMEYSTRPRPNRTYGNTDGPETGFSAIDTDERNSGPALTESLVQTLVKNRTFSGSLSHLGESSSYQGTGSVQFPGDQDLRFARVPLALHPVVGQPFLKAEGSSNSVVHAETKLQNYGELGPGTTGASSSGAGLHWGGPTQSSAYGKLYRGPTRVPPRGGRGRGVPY
Sequence (O75909 whole entry partner): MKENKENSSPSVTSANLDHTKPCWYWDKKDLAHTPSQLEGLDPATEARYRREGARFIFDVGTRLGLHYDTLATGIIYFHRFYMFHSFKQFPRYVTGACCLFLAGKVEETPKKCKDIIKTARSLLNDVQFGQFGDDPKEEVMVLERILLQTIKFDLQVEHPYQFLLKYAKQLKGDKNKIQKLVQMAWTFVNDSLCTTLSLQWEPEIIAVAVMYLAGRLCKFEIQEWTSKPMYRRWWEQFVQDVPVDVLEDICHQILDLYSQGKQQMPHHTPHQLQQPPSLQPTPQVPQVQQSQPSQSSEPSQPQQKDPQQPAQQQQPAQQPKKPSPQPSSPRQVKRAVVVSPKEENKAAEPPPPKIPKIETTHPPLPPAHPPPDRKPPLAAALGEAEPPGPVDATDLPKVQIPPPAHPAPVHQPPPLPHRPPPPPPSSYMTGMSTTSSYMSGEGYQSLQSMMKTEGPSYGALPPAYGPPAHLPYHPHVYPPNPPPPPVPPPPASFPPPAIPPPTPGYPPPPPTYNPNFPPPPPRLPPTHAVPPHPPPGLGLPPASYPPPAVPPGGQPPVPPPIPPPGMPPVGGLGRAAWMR
Experiment: Inhibition of CDK12 (ADP-Glo kinase assay)
Settings: 60 nM CDK12/CycK, 30 minutes pre-incubation, 1 μM ATP, 0.5 μM RBER-IRStide substrate, 1 h at 25° C., read-out: CDK12/cyclin K IC50
Description: Assay buffer comprised 50 mM HEPES pH 7.5, 1 mM DTT, 20 mM MgCl2, 3 mM MnCl2, 3 μM Na3VO4 and 50 μg/ml PEG8000. Kinase reactions were carried out in 384-well Optiplates™ (PerkinElmer 6007299). […] Incubations were carried out for 1 h at 25° C. with kinase activity determined using the ADP-Glo™ reagent from Promega according to the manufacturer's instructions. Light generated is proportional to kinase activity and measured using a luminometer (EnVision, PerkinElmer). […]
Listed compounds paired with reported IC50

CN(C)C/C=C/C(=O)N1CC[C@@H](OCC(=O)N2CCC(c3cc4c(-c5cnn6ncccc56)ccnc4[nH]3)C2)C1 (stereo partly shown) = 100 to 1000 nM
O=C(CN1CCOCC1)NCc1cc2c(-c3cnn4ncccc34)ccnc2[nH]1 = 1000 to 30000 nM
Cc1c[nH]c2nccc(-c3cnn4ncccc34)c12 = 1000 to 30000 nM

Look at this compound and give its reported IC50. C=CC(=O)N1CCC[C@H](C(=O)NCc2cc3c(-c4cnn5ncccc45)ccnc3[nH]2)C1
1000 to 30000 nM

Field entry: C=CC(=O)N1CCOC(C(=O)NCCc2cc3c(-c4cnn5ncccc45)ccnc3[nH]2)C1 (stereo not shown)
< 100 nM

And what about the compound C=CC(=O)N1CCC[C@H]1C(=O)NCCc1cc2c(-c3cnn4ncccc34)c(Cl)cnc2[nH]1 ?
< 100 nM

Thanks! And C=CC(=O)N1CCC(C(=O)NCc2cc3c(-c4cnn5ncccc45)ccnc3[nH]2)CC1 ?
1000 to 30000 nM

Next compound up: C=CC(=O)N1CCCC(C(=O)NCCc2cc3c(-c4cnn5ncccc45)ccnc3[nH]2)C1 (stereo not shown)
< 100 nM

Where do these numbers come from? They come from patent US11407767B2.
